quantityName: melting point

Answered cases to consult:
{"compound": "C#CCN(Cc1ccc2nc[nH]c(=O)c2c1)c1ccc(C(=O)NCc2cccc([N+](=O)[O-])c2)cc1", "melting point": "93 to 96 °C"}
{"compound": "COc1cc2c(=O)[nH]c3c(c2cc1OC)c1ccccc1n3C", "melting point": "> 310 °C"}
{"compound": "CCN(CC)C(=O)COc1nc(-c2ccccc2)nc2ccccc12", "melting point": "113 °C"}
{"compound": "CCOc1ccc(S(=O)(=O)N2CCN(C)CC2)cc1-c1nc2c([nH]1)c1nncn1c(=O)n2CC", "melting point": "248 °C"}

# get_value(readout='melting point', item= "CC(C)C[C@H](NC(=O)OCC1CCCCC1)C(=O)NC(C)(C)C(=O)c1c(-c2ccccc2)c1=O" ) 42 to 49 °C

# get_value(readout='melting point', item= "COc1cc(C=CC(=O)Nc2cnc3c(C)cc(C)cc3c2-c2ccccc2Cl)cc(OC)c1OC(C)=O" ) 152 to 154 °C

# get_value(readout='melting point', item= COc1cc2cc(C(C#N)N3CCOCC3)sc2cc1OC (centres undefined) ) 196 to 199 °C

# get_value(readout='melting point', item= CCC(C#N)c1cccc(C(=O)c2cc3cc(C(=O)OC)sc3s2)c1 (centres undefined) ) 130 °C

# get_value(readout='melting point', item= "COC(=O)c1cc(Br)ccc1Cl" ) 43 to 44 °C

# get_value(readout='melting point', item= N#CC(C(=O)Nc1ccccc1)C(=O)c1nn(-c2ccccc2)c2c1CSc1ccc(NC(=O)CN)cc1-2 (centres undefined) ) 218 to 221 °C

# get_value(readout='melting point', item= "CCCCC(=O)c1c(-c2ccc3cc(O)ccc3c2)oc2ccc(Cl)cc12" ) 156 to 157 °C

# get_value(readout='melting point', item= "CN(C)C=Nc1c(C#N)c(=O)n(C)c(=O)n1C" ) 174 to 175 °C

# get_value(readout='melting point', item= CC(=O)NCc1ccc(C(C)Cl)cc1 (centres undefined) ) 58 to 62 °C

# get_value(readout='melting point', item= NC(=O)CCC(C(=O)O)N1C(=O)c2cccc(NCc3ccco3)c2C1=O (centres undefined) ) 114 to 116 °C

# get_value(readout='melting point', item= "NS(=O)(=O)OCCCCOc1ccccc1" ) 76 to 77 °C

# get_value(readout='melting point', item= CN(C)c1ccc(NC(=O)C(CS)Cc2ccccc2)cc1C(=O)O (centres undefined) ) 85 to 89 °C

# get_value(readout='melting point', item= "NCc1c(Nc2ccccc2)cccc1-c1ccccc1" ) 115 to 116 °C
